From: patent US20110039721A1

tested on: mRNA expressed from the genes (A) to (D) in rat liver; test: Behavior of genes (mRNA expression level, oligo-DNA microarray) in rat liver after 28-day oral administration; type: in vivo; conditions: Gene No. 3776, Rn.43232, group (C)
Measure Name: Behavior of gene caused by administration of chemical substance

Below, 5 compounds whose answers are already recorded.
Cc1ccccc1[N+](=O)[O-]
−
C=CCc1ccc(OC)c(OC)c1
−
CC(=O)Nc1cccc2c1-c1ccccc1C2
−
Nc1ccc(N=Nc2ccccc2)cc1
−
O=CCCCC=O
−

Next item in the queue.
According to the records, this compound `O=[N+]([O-])c1ccc2ccc3cccc4ccc1c2c34` displays Behavior of gene caused by administration of chemical substance of −

* * *

system: mRNA expressed from the genes (A) to (D) in rat liver; assay: Behavior of genes (mRNA expression level, oligo-DNA microarray) in rat liver after 28-day oral administration; assay type: in vivo; details: gene group (C), Unigene No. Rn.9757
Measure Name: Behavior of gene caused by administration of chemical substance, Gene No. 1119

OC[C@@H](O)[C@@H](O)[C@H](O)[C@H](O)CO [TS009, D-Mannitol]
−
Cl.Cl.Nc1ccc(N)cc1 [TS059, p-Phenylenediamine 2HCl]
+
O=c1c(O)c(-c2ccc(O)c(O)c2)oc2cc(O)cc(O)c12 [TS037, Quercetin]
−
CC(O)CCl (centres unmarked) [TS079, 1-Chloro-2-propanol]
−

According to the records, this molecule O=C([O-])c1ccccc1.[Na+] [TS084, Sodium benzoate] displays Behavior of gene caused by administration of chemical substance, Gene No. 1119 of −

* * *

system: mRNA expressed from the genes (A) to (D) in rat liver; experiment: Behavior of genes (mRNA expression level, oligo-DNA microarray) in rat liver after 28-day oral administration; format: in vivo; conditions: gene group (C), Unigene No. Rn.9757
Measure Name: Behavior of gene caused by administration of chemical substance, Gene No. 1119

Below, 6 compounds whose answers are already recorded.
O=C(c1ccccc1)C(O)c1ccccc1 (stereo not shown)
+
Cc1cc(N)ccc1N.O=S(=O)(O)O
−
Nc1ccc(N)c(Cl)c1.O=S(=O)(O)O
+
Nc1ccc([N+](=O)[O-])cc1N
−
Cc1ccc(N)cc1Cl
−
ClC(Cl)(Cl)Cl [TS003, Carbon tetrachloride]
−

According to the records, this compound Cl.ClCc1ccccn1 [TS033, 2-Chloromethylpyridine HCl] displays Behavior of gene caused by administration of chemical substance, Gene No. 1119 of −

According to the records, this compound `CC(=O)Oc1ccccc1C(=O)O` displays Behavior of gene caused by administration of chemical substance, Gene No. 1119 of −

* * *

test system: mRNA expressed from the genes (A) to (D) in rat liver; assay: Behavior of genes (mRNA expression level, oligo-DNA microarray) in rat liver after 28-day oral administration; type: in vivo; settings: gene group (C), Unigene No. Rn.4620
Measure Name: Behavior of gene caused by administration of chemical substance, Gene No. 3929

CC(O)CCl (centres unmarked) [TS079, 1-Chloro-2-propanol]
−
Clc1ccc(C(c2ccc(Cl)cc2)C(Cl)(Cl)Cl)cc1 [TS016, Dichloro-diphenyl-trichloroethane]
−
CCC[N+](=O)[O-] [TS036, 1-Nitropropane]
+
O=c1c(O)c(-c2ccc(O)c(O)c2)oc2cc(O)cc(O)c12 [TS037, Quercetin]
−

Next item in the queue.
According to the records, this compound ClC1=C(Cl)[C@]2(Cl)[C@@H]3[C@@H]4C[C@@H]([C@H]5O[C@@H]45)[C@@H]3[C@@]1(Cl)C2(Cl)Cl [TS017, Dieldrin] displays Behavior of gene caused by administration of chemical substance, Gene No. 3929 of −
